- assayRemarks: acute toxicity in the mouse
- Type: in vivo, male and female Chbb: NMRI (SPF)-mice
- conditionParameters: in vivo, po; Table V; LD50 / ED50 adjuvant arthritis prim. reaction; read-out: Therapeutic Ratio I/II (converted)
Form field: selectivity ratio (one value per entry).
I'd appreciate a reply containing only the number, no unit.

Examples from the recorded data:
- smilesStructure: "Cc1cnc(NC(=O)C2=C(O)c3ccccc3S(=O)(=O)N2C)s1"
  readoutType: "selectivity ratio"
  testResult: 1680
- smilesStructure: "Cc1csc(NC(=O)C2=C(O)c3ccccc3S(=O)(=O)N2C)n1"
  readoutType: "selectivity ratio"
  testResult: 1320

Alright, here's another molecule for you.
Lookup: What value of selectivity ratio has been recorded for this entry: CN1C(C(=O)Nc2nccs2)=C(O)c2ccccc2S1(=O)=O
Found: 12600
